target: Beta-lactamase (Escherichia coli (strain K12)); assay: qHTS Inhibitors of AmpC Beta-Lactamase (assay without detergent); conditions: AmpC nitrocefin hydrolysis, absorbance 480 nm, 0.0001% Triton; series mostly up to 57.1 µM; also: nearly all actives have a fitted effect of over 20% in size
In all, about 330,000 compounds went through this assay and about 1,700 (0.52%) were called active. Calls follow the shape of the dose curve; as a rule, active = well fitted inhibition curve with a large enough effect; inconclusive = small, poorly fitted or top-dose-only effect; inactive = no such curve, though single readings can be large or run the other way. Only a selection was taken, and actives are over-represented in it overall.
# output must be one of active, inactive

Below, 3 compounds whose answers are already recorded.
| compound | cat |
| --- | --- |
| COC(=O)c1ccc(COc2ccc(C#N)cc2)o1 | inactive |
| Cc1ccc(C(=O)Oc2coc(CSc3nnc(NC(=O)c4cccs4)s3)cc2=O)cc1C | active |
| CN(C)/C=C(/C(=O)c1ccc(F)cc1)S(=O)(=O)c1ccc(F)cc1 | active |

Query compound follows.
For this compound, state the assay outcome: `CN(C)/C=C(/C(=O)c1ccc(Cl)cc1)S(=O)(=O)c1ccccc1` inactive

====

molecular target: Beta-lactamase (Escherichia coli (strain K12)) (UniProt P00811); assay: qHTS Inhibitors of AmpC Beta-Lactamase (assay without detergent); conditions: AmpC nitrocefin hydrolysis, absorbance 480 nm, 0.0001% Triton; series mostly up to 57.1 µM; also: nearly all actives have a fitted effect of over 20% in size
Sequence (P00811 whole entry, looked up): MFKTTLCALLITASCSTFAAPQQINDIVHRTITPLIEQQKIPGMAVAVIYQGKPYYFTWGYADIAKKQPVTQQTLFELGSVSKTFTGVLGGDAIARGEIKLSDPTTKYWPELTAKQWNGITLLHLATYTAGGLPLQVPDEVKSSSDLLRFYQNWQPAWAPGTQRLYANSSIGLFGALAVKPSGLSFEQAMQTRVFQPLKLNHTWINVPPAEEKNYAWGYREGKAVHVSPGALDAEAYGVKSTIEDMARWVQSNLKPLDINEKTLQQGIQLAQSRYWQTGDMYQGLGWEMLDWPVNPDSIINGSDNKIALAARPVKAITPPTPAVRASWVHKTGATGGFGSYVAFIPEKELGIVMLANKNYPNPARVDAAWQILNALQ
Screen size: about 330,000 compounds; about 1,700 (0.52%) were called active. Calls come from the whole dose curve; as a rule, active = well fitted inhibition curve with a large enough effect; inconclusive = small, poorly fitted or top-dose-only effect; inactive = no such curve, though single readings can be large or run the other way. The sample as a whole holds a higher share of actives than the screen did.
# output must be one of active, inactive

For this compound, state the assay outcome: COc1ccc(C2CC(c3ccc(C)cc3)Nc3ncnn32)cc1 (stereo unspecified) inactive

For this compound, state the assay outcome: `COc1ccccc1N(CC(=O)Nc1ccc(C(F)(F)F)cc1)S(C)(=O)=O` inactive

For this compound, state the assay outcome: `CC(C)C(=O)Nc1nnc(Sc2ccc(N(C)C)cc2)s1` inactive

====

molecular target: Beta-lactamase (Escherichia coli (strain K12)) (UniProt P00811); test: qHTS Inhibitors of AmpC Beta-Lactamase (assay without detergent); settings: AmpC nitrocefin hydrolysis, absorbance 480 nm, 0.0001% Triton; series mostly up to 57.1 µM; also: nearly all actives have a fitted effect of over 20% in size
Hit rate of the full screen: of about 330,000 compounds, about 1,700 (0.52%) were called active. Calls come from the whole dose curve; as a rule, active = well fitted inhibition curve with a large enough effect; inconclusive = small, poorly fitted or top-dose-only effect; inactive = no such curve, though single readings can be large or run the other way. The list comes from a sample in which actives are over-represented; it also holds close analogues and randomly drawn compounds.
# output must be one of active, inactive

Below, 10 molecules whose answers are already recorded.
| molecule | cat |
| --- | --- |
| Cc1nn(C)c(Cl)c1CN1CCC(Oc2ccc(C(=O)N3CCCC3)cc2)CC1 | inactive |
| O=c1c2ccccc2[nH]c(=S)n1CCN1CCC(=C(c2ccc(F)cc2)c2ccc(F)cc2)CC1 | active |
| O=C1CCC(=O)N(c2ccccc2)N1 | inactive |
| Cc1c(Cl)cccc1NC(=O)CC1SC(=NCC2CCCO2)NC1=O (stereo not drawn) | inactive |
| COC(=O)C1(C)NC(c2ccc(F)cc2)C2C(=O)N(c3ccccc3)C(=O)C21 (stereo not drawn) | inactive |
| CCn1c2ccccc2c2cc(NC(=O)Nc3ccc([N+](=O)[O-])cc3C)ccc21 | inactive |
| CCOCCn1[nH]c2ccccc2c1=O | inactive |
| CN(C)Cc1c(O)ccc2c(=O)c(-c3ccccc3Cl)coc12 | inactive |
| O=C(NC1CCN(C(=S)NCc2ccco2)CC1)c1ccc(F)cc1 | inactive |
| N#CCC(=O)Nc1ccc(C(=O)OCC(=O)Nc2sc3c(c2C#N)CCCC3)cc1 | active |

For this molecule, state the assay outcome: `O=C(/C=C/c1ccccc1)Oc1coc(CSc2ncccn2)cc1=O` inactive

For this molecule, state the assay outcome: `Cc1cccc(C(=O)OCC(=O)Nc2sc3c(c2C#N)CCC3)c1` inactive

For this molecule, state the assay outcome: CCC(CC)C(=O)N1CC(=O)Nc2ccc(Br)cc2C1c1ccccc1 (stereo not drawn) active

====

target: Beta-lactamase (Escherichia coli (strain K12)); assay: qHTS Inhibitors of AmpC Beta-Lactamase (assay without detergent); settings: AmpC nitrocefin hydrolysis, absorbance 480 nm, 0.0001% Triton; series mostly up to 57.1 µM; also: nearly all actives have a fitted effect of over 20% in size; also: potency is read from the fitted curve at half-maximal effect
The whole screen tested about 330,000 compounds, of which about 1,700 (0.52%) were called active. The full list was thinned out, with actives kept by preference.
measured_attribute: Potency

Sample answers from the record:
| compound | assay_system | result |
| --- | --- | --- |
| CCC(C)Cn1c(O)cc2nn(-c3nc4ccccc4s3)c(=O)c-2c1C (stereo not given) | Beta-lactamase (Escherichia coli (strain K12)) | 17.8 µM (active) |
| CC(=NCc1ccco1)c1c(C(F)(F)F)[nH]n(-c2nc3ccccc3s2)c1=O | Beta-lactamase (Escherichia coli (strain K12)) | inactive |
| CC(=O)N1CCN(S(=O)(=O)c2c(F)cc(F)c(Cl)c2F)CC1 | Beta-lactamase (Escherichia coli (strain K12)) | inactive |
| Cc1ccc(S(=O)(=O)N2CCCC2CO)cc1 (stereo not given) | Beta-lactamase (Escherichia coli (strain K12)) | inactive |

Value lookup for Potency; key = COc1ccc(CC2c3cc(OC)c(OC)cc3CC[N+]2(C)CCC(=O)OCCCCCOC(=O)CC[N+]2(C)CCc3cc(OC)c(OC)cc3C2Cc2ccc(OC)c(OC)c2)cc1OC (stereo not given) inactive

====

target: Beta-lactamase (Escherichia coli (strain K12)) (UniProt P00811); assay: qHTS Inhibitors of AmpC Beta-Lactamase (assay without detergent); conditions: AmpC nitrocefin hydrolysis, absorbance 480 nm, 0.0001% Triton; series mostly up to 57.1 µM; also: nearly all actives have a fitted effect of over 20% in size
In all, about 330,000 compounds went through this assay and about 1,700 (0.52%) were called active. Calls come from the whole dose curve; as a rule, active = well fitted inhibition curve with a large enough effect; inconclusive = small, poorly fitted or top-dose-only effect; inactive = no such curve, though single readings can be large or run the other way. This is one part of a sample in which actives are shown more often than they occur.
# output must be one of YES = active, NO = inactive

For this compound, state the assay outcome: `O=C(CCCN1C(=O)/C(=C\c2ccccc2)SC1=S)Nc1ccccc1O` YES

For this compound, state the assay outcome: `Cc1ccccc1C(=O)O` NO

====

biological target: Beta-lactamase (Escherichia coli (strain K12)); test: qHTS Inhibitors of AmpC Beta-Lactamase (assay without detergent); conditions: AmpC nitrocefin hydrolysis, absorbance 480 nm, 0.0001% Triton; series mostly up to 57.1 µM; also: nearly all actives have a fitted effect of over 20% in size
The campaign covered roughly 330,000 compounds. About 1,700 (0.52%) were called active. Calls follow the shape of the dose curve; as a rule, active = well fitted inhibition curve with a large enough effect; inconclusive = small, poorly fitted or top-dose-only effect; inactive = no such curve, though single readings can be large or run the other way. The sample holds actives, similar compounds and a random draw of the others, so the mix is not that of the screen.
# output must be one of active, inactive

Below, 6 compounds whose answers are already recorded.
| compound | cat |
| --- | --- |
| O=C(COC(=O)c1ccc(Oc2ccccc2)cc1)Nc1nnc(-c2ccccc2)o1 | active |
| COc1ccccc1C(=O)NCC(=O)OCC(=O)Nc1nnc(-c2ccccc2)o1 | inactive |
| Cc1ccc(C)c(NC(=O)CSc2nnc(Cc3cccn3C)n2-c2ccc(F)cc2)c1 | inactive |
| O=C(CSC(=S)N1CCOCC1)c1cc(Br)cc(Br)c1O | active |
| CN(C)S(=O)(=O)c1ccc(NC(=O)COC(=O)c2n[nH]c3ccccc23)cc1 | inactive |
| CCN(C(=O)COC(=O)C1CCN(S(=O)(=O)c2ccc(C)c(C)c2)CC1)C1CCS(=O)(=O)C1 (stereo unspecified) | inactive |

Query compound follows.
For this compound, state the assay outcome: `O=C(Cc1cccs1)Nc1nnc(SCc2ccc(F)cc2)s1` inactive

====

biological target: Beta-lactamase (Escherichia coli (strain K12)) (UniProt P00811); test: qHTS Inhibitors of AmpC Beta-Lactamase (assay without detergent); conditions: AmpC nitrocefin hydrolysis, absorbance 480 nm, 0.0001% Triton; series mostly up to 57.1 µM; also: nearly all actives have a fitted effect of over 20% in size
Screen size: about 330,000 compounds; about 1,700 (0.52%) were called active. Calls come from the whole dose curve; as a rule, active = well fitted inhibition curve with a large enough effect; inconclusive = small, poorly fitted or top-dose-only effect; inactive = no such curve, though single readings can be large or run the other way. Many of the other results were omitted from the sample, so actives are more common in it than they were.
# output must be one of y = active, n = inactive

Below, 2 molecules whose answers are already recorded.
| molecule | assay_system | cat |
| --- | --- | --- |
| Cn1c2cc(B(O)O)sc2c2cnn(Cc3ccccc3F)c(=O)c21 | Beta-lactamase (Escherichia coli (strain K12)) (UniProt P00811) | y |
| CC1=CC2=NC(=O)CC(C)(C(=O)N(CC(=O)NC(C)(C)C)Cc3ccccc3)N2C=C1 (stereo not drawn) | Beta-lactamase (Escherichia coli (strain K12)) (UniProt P00811) | n |

For this molecule, state the assay outcome: `Clc1ccc(Cl)c(Oc2ccc(Oc3nc(Cl)ccc3Cl)cc2)n1` n

====

molecular target: Beta-lactamase (Escherichia coli (strain K12)); assay: qHTS Inhibitors of AmpC Beta-Lactamase (assay without detergent); conditions: AmpC nitrocefin hydrolysis, absorbance 480 nm, 0.0001% Triton; series mostly up to 57.1 µM; also: nearly all actives have a fitted effect of over 20% in size
In all, about 330,000 compounds went through this assay and about 1,700 (0.52%) were called active. Calls come from the whole dose curve; as a rule, active = well fitted inhibition curve with a large enough effect; inconclusive = small, poorly fitted or top-dose-only effect; inactive = no such curve, though single readings can be large or run the other way. The sample as a whole holds a higher share of actives than the screen did.
# output must be one of Y for active, N for inactive

| molecule | cat |
| --- | --- |
| Cc1cc(Nc2cccc(F)c2)n2ncnc2n1 | N |
| OCCNCCOc1ccc(Cl)c(Cl)c1 | N |
| CCOC(=O)C1CCCN(C(=O)CSc2nnc3nc(C)cc(C)n23)C1 (centres undefined) | N |

Query molecule follows.
For this molecule, state the assay outcome: `O=C1CC(=O)N(Cc2ccccc2)C(=O)N1CCCCCCN1C(=O)CC(=O)N(Cc2ccccc2)C1=O` Y
